These entries and their values trace back to ChEMBL document CHEMBL5120772.

molecular target: hERG (Homo sapiens); experiment: Inhibition of hERG in HEK293 cells assessed as mean compensated suppression rate at 1 uM incubated for 13 mins by whole cell patch clamp assay relative to control; settings: HEK293 cells expressing hERG
PROPERTY LABEL: inhibition at 13 min, 1 µM (%)
Please reply with the bare figure in % and do not write the unit itself.

# input molecule: COc1cc(OC)c(F)c(COc2cnc(Nc3cnn(CCO)c3)nc2)c1F ; wanted: its inhibition at 13 min, 1 µM
7

###

test: in vivo; settings: Sprague-Dawley, rat, po, 0.3 mg/kg
PROPERTY LABEL: Tmax at 24 h (h)
Please reply with the bare figure in h and do not write the unit itself.

# input molecule: COc1cc(OC)c(F)c(COc2cnc(Nc3cnn(CCO)c3)nc2)c1F ; wanted: its Tmax at 24 h
1

###

target: hERG (Homo sapiens, UniProt Q12809); test: Inhibition of hERG in HEK293 cells assessed as mean compensated suppression rate at 10 uM incubated for 13 mins by whole cell patch clamp assay relative to control; settings: HEK293 cells expressing hERG
Sequence (Q12809 whole entry): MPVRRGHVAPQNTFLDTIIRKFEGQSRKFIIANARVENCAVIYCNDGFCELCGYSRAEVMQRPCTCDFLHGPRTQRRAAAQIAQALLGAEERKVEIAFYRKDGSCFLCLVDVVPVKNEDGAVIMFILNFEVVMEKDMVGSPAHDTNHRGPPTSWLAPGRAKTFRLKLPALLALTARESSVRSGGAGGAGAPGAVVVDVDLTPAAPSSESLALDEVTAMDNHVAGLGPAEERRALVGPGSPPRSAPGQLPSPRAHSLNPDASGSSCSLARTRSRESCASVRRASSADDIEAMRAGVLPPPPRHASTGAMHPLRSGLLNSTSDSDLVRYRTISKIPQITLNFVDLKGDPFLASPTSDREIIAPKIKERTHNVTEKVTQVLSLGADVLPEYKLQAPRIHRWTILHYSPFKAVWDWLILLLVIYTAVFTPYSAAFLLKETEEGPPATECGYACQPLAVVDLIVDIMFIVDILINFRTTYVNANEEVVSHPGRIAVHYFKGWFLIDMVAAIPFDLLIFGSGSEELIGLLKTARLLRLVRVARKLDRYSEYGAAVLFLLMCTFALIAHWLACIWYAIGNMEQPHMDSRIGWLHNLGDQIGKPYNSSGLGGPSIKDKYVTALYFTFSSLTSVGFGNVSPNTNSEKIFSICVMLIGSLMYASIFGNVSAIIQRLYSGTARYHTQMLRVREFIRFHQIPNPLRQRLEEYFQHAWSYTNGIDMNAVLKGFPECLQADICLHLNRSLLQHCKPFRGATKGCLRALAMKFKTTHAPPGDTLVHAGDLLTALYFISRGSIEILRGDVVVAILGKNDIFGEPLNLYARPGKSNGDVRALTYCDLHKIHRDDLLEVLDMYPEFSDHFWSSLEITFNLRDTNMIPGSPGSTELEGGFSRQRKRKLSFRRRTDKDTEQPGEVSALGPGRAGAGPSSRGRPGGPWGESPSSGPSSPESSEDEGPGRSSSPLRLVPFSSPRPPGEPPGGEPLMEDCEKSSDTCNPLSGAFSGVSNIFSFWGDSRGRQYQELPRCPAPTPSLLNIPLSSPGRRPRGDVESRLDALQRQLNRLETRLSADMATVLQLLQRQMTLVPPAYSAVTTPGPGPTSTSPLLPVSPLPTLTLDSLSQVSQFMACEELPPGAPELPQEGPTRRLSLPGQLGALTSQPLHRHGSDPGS
PROPERTY LABEL: inhibition at 13 min, 10 µM (%)
Please reply with the bare figure in % and do not write the unit itself.

# input compound: COc1cc(OC)c(F)c(COc2cnc(Nc3cnn(CCO)c3)nc2)c1F ; wanted: its inhibition at 13 min, 10 µM
9.1

###

assay: Ratio of drug concentration in brain to plasma (Kp,brain) in Sprague-Dawley rat at 1 mg/kg, po measured after 4 hrs
PROPERTY LABEL: Kp at 4 h
Keep it simple and answer with nothing but the number.

# input compound: COc1cc(OC)c(F)c(COc2cnc(Nc3cnn(CCO)c3)n[14cH]2)c1F ; wanted: its Kp at 4 h
0.2

###

tested on: NIH3T3; assay: Cytotoxicity against mouse NIH/3T3 cells overexpressing FGFR3 S249C assessed as cell growth inhibition incubated for 5 days by CellTitre-Glo assay; conditions: NIH3T3, 120 h
Below, each entry is listed alongside its reported IC50.
Quick note: number first, unit second.

# CHEM SMILES, TARGET ENTITY, PROPERTY LABEL, RECORDED VALUE
measured = [
    ("COc1cc(OC)c(F)c(COc2cnc(Nc3cnn(CCNC4CCN(C)CC4)c3)nc2)c1F.Cl.Cl.Cl", "NIH3T3", "IC50", "32 nM"),
    ("COc1cc(OC)c(F)c(COc2cnc(Nc3cnn(CCO)c3)nc2)c1F", "NIH3T3", "IC50", "11 nM"),
    ("COc1cc(OC)c(F)c(COc2cnc(Nc3ccc(N4CCC(N5CCN(C)CC5)CC4)c(C)c3)nc2)c1F", "NIH3T3", "IC50", "20 nM"),
    ("COc1cc(OC)c(F)c(COc2cnc(Nc3cnn(CCN4CCNCC4)c3)nc2)c1F.Cl.Cl.Cl", "NIH3T3", "IC50", "13 nM"),
    ("COc1cc(Nc2ncc(OCc3c(F)c(OC)cc(OC)c3F)cn2)ccc1N1CCC(N2CCN(C)CC2)CC1", "NIH3T3", "IC50", "13 nM"),
]

# input compound: COc1cc(Nc2ncc(CCc3c(F)c(OC)cc(OC)c3F)cn2)ccc1N1CCN(C)CC1 ; wanted: its IC50
18 nM

# input compound: COc1cc(Nc2ncc(CCc3c(F)c(OC)cc(OC)c3F)cn2)ccc1N1CCC(N(C)C2CCN(C)CC2)CC1.Cl.Cl.Cl.Cl ; wanted: its IC50
24 nM

# input compound: COc1cc(OC)c(F)c(COc2cnc(Nc3ccc(N4CCC(N5CCN(C)CC5)CC4)c(F)c3)nc2)c1F ; wanted: its IC50
5.5 nM
